Every entry's value here was drawn from paper PMC3751551.

# experimental_target: T1, Vm-EYFP, P05923
# T1 chain: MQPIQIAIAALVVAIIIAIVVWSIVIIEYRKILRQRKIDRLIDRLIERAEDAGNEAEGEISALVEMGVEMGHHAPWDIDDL
# assay_notes: BRET assay
# measurement_context: chain shown with the change; HEK293T cells; parent: est. 1.6; read off a plot
Exam item: assign true to entries whose response is below 1 and false to entries at or above 1. Note that a value of exactly 1 receives false.

Known results for binders:
stdin: I wonder whether Rluc-BST2, Q10589 V35A (protein) MASTSYDYCRVPMEDGDKRCKLLLGIGILVLLIIAILGVPLIIFTIKANSEACRDGLRAVMECRNVTHLLQQELTEAQKGFQDVEAQAATCNHTVMALMASLDAEKAQGQKKVEELEGEITTLNHKLQDASAEVERLRRENQVLSVRIADKKYYPSSQDSS has response below 1. Can you tell?
stdout: false

stdin: I wonder whether Rluc-BST2, Q10589 P40A (protein) MASTSYDYCRVPMEDGDKRCKLLLGIGILVLLIIVILGVALIIFTIKANSEACRDGLRAVMECRNVTHLLQQELTEAQKGFQDVEAQAATCNHTVMALMASLDAEKAQGQKKVEELEGEITTLNHKLQDASAEVERLRRENQVLSVRIADKKYYPSSQDSS has response below 1. Can you tell?
stdout: false

stdin: I wonder whether Rluc-BST2, Q10589 L41A (protein) MASTSYDYCRVPMEDGDKRCKLLLGIGILVLLIIVILGVPAIIFTIKANSEACRDGLRAVMECRNVTHLLQQELTEAQKGFQDVEAQAATCNHTVMALMASLDAEKAQGQKKVEELEGEITTLNHKLQDASAEVERLRRENQVLSVRIADKKYYPSSQDSS has response below 1. Can you tell?
stdout: true

stdin: I wonder whether Rluc-BST2, Q10589 L37A (protein) MASTSYDYCRVPMEDGDKRCKLLLGIGILVLLIIVIAGVPLIIFTIKANSEACRDGLRAVMECRNVTHLLQQELTEAQKGFQDVEAQAATCNHTVMALMASLDAEKAQGQKKVEELEGEITTLNHKLQDASAEVERLRRENQVLSVRIADKKYYPSSQDSS has response below 1. Can you tell?
stdout: true

stdin: I wonder whether Rluc-BST2, Q10589 I34A (protein) MASTSYDYCRVPMEDGDKRCKLLLGIGILVLLIAVILGVPLIIFTIKANSEACRDGLRAVMECRNVTHLLQQELTEAQKGFQDVEAQAATCNHTVMALMASLDAEKAQGQKKVEELEGEITTLNHKLQDASAEVERLRRENQVLSVRIADKKYYPSSQDSS has response below 1. Can you tell?
stdout: false

Others:
stdin: I wonder whether Rluc-BST2, Q10589 V39A (protein) MASTSYDYCRVPMEDGDKRCKLLLGIGILVLLIIVILGAPLIIFTIKANSEACRDGLRAVMECRNVTHLLQQELTEAQKGFQDVEAQAATCNHTVMALMASLDAEKAQGQKKVEELEGEITTLNHKLQDASAEVERLRRENQVLSVRIADKKYYPSSQDSS has response below 1. Can you tell?
stdout: false

stdin: I wonder whether Rluc-BST2, Q10589 G38A (protein) MASTSYDYCRVPMEDGDKRCKLLLGIGILVLLIIVILAVPLIIFTIKANSEACRDGLRAVMECRNVTHLLQQELTEAQKGFQDVEAQAATCNHTVMALMASLDAEKAQGQKKVEELEGEITTLNHKLQDASAEVERLRRENQVLSVRIADKKYYPSSQDSS has response below 1. Can you tell?
stdout: false

stdin: I wonder whether Rluc-BST2, Q10589 I42A (protein) MASTSYDYCRVPMEDGDKRCKLLLGIGILVLLIIVILGVPLAIFTIKANSEACRDGLRAVMECRNVTHLLQQELTEAQKGFQDVEAQAATCNHTVMALMASLDAEKAQGQKKVEELEGEITTLNHKLQDASAEVERLRRENQVLSVRIADKKYYPSSQDSS has response below 1. Can you tell?
stdout: false
